TARGET OR SYSTEM: Bifunctional protein GlmU (Mycobacterium tuberculosis (strain ATCC 25618 / H37Rv)) (UniProt P9WMN3)
Sequence (P9WMN3 whole entry, looked up): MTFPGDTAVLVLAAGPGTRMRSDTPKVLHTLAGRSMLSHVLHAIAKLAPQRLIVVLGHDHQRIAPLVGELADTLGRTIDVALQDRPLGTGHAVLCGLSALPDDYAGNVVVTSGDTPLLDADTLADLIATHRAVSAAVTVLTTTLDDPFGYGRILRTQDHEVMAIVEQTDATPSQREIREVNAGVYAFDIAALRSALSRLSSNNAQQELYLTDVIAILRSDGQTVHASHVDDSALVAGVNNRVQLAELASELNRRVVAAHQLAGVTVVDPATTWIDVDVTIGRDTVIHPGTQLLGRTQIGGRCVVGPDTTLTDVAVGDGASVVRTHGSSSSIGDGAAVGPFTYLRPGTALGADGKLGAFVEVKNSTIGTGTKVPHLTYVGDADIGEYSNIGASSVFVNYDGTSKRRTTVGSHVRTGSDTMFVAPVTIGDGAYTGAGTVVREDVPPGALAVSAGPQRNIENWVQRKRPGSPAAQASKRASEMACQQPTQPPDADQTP
PROTOCOL: inhibition of mycobacterial GlmU enzyme – biochemical, glucosamine-1-phosphate acetyltransferase (AID 1376);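 note: 0% = complete reaction with vehicle and 100% = reaction without substrate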
TEST CONDITIONS: M. tuberculosis GlmU acetyltransferase enzyme assay; active compounds read high;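 tested at 30 µM in the primary screen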
Hit rate of the full screen: of about 220,000 compounds, about 530 (0.24%) were called active. Shown is part of a subset that was picked to be rich in actives. Results with a measured potency or affinity are listed apart.
MEASURE NAME: inhibition (%)
The reply should be a number in %, with the unit left off.

Lookup result for CC1(C)Cc2c(C#N)c(N)n(-c3ccccc3)c(=O)c2CO1 ; measured inhibition: -3.12

Lookup result for NS(=O)(=O)c1ccc(CCNC(=O)CCCC2=NS(=O)(=O)c3ccccc3N2)cc1 ; measured inhibition: 2.45

Lookup result for Cn1cc(/C=N/NC(=O)c2cc3cc(Br)ccc3o2)c2ccccc21 ; measured inhibition: -2.19

Lookup result for CCOC(=O)C1=C2NC(=O)c3ccccc3N2C(=O)C1 ; measured inhibition: 13.7

Lookup result for Cc1ccc(S(=O)(=O)Nc2nccs2)cc1[N+](=O)[O-] ; measured inhibition: -3.62

---

TARGET OR SYSTEM: Bifunctional protein GlmU (Mycobacterium tuberculosis (strain ATCC 25618 / H37Rv)) (UniProt P9WMN3)
PROTOCOL: inhibition of mycobacterial GlmU enzyme – biochemical, glucosamine-1-phosphate acetyltransferase (AID 1376);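 note: 0% = complete reaction with vehicle and 100% = reaction without substrate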
TEST CONDITIONS: M. tuberculosis GlmU acetyltransferase enzyme assay;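 tested at 30 µM in the primary screen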
In all, about 220,000 compounds went through this assay and about 530 (0.24%) were called active. Rule as the data show it: active = inhibition above about 13%; inconclusive = no clear call, values can overlap the other calls; inactive = below that. The list comes from a sample in which actives are over-represented; it also holds close analogues and randomly drawn compounds. Potency and affinity values are given separately.
Select the matching outcome among 1 (active), -1 (inactive)

Request: Would you mind telling me which call this test gave CCOC(=O)C1=C(C)N=C2SC(C)C(=O)N2C1c1ccc(OC(C)=O)c(OC)c1 (configuration not stated) ?
Response: -1

Request: Would you mind telling me which call this test gave CCOC(=O)C1=C(C)N=C2SC(C)C(=O)N2C1c1ccc(OCC)c(OCC)c1 (configuration not stated) ?
Response: 1

Request: Would you mind telling me which call this test gave O=C(/C=C/NNC(=O)c1ccc(Br)cc1)c1ccccc1 ?
Response: -1

Request: Would you mind telling me which call this test gave Cc1ccc(-n2c(C)nc3c(cnn3-c3ccc(C)c(C)c3)c2=O)cc1C ?
Response: -1

Request: Would you mind telling me which call this test gave COc1ccc(NC(=O)c2cc3nc(-c4ccccc4)cc(-c4ccccc4)n3n2)c(OC)c1 ?
Response: 1

Request: Would you mind telling me which call this test gave COc1ccccc1Nc1nc(N)nc(CSCCO)n1 ?
Response: -1

Request: Would you mind telling me which call this test gave COc1ccc(COc2ccccc2C(N)=O)cc1F ?
Response: -1

Request: Would you mind telling me which call this test gave O=C(/C=C/NNC(=O)c1ccccc1)c1ccc(Br)cc1 ?
Response: -1

Request: Would you mind telling me which call this test gave Cc1ccc(-n2c(C)nc3c(cnn3-c3ccc(F)cc3)c2=O)cc1C ?
Response: -1

Request: Would you mind telling me which call this test gave O=C(Nc1cccc(O)c1)c1cc2nc(-c3ccccc3)cc(-c3ccccc3)n2n1 ?
Response: -1

Request: Would you mind telling me which call this test gave CC(CO)Nc1nc(SCc2ccccc2)nc2sc3c(c12)CCC3 (configuration not stated) ?
Response: -1

Request: Would you mind telling me which call this test gave COC(=O)C1=C2c3[nH]c4ccccc4c3CCN2C(=O)CC1 ?
Response: -1
